# tested_system: UniProt O43613
# protocol_details: In vitro assay: intracellular calcium measurements (FLIPR), antagonistic activity
# study_conditions: CHO cells expressing human orexin-1 receptor, orexin-A agonist, geometric mean, read-out: IC50 Ox1
Label MET when IC50 is strictly below 30 nM; at or above that, label NOT MET.

Enquiry: For this compound, is IC50 lower than 30 nM? C=C1C[C@@H](c2nc3cc(OC)ccc3[nH]2)N(C(=O)c2nc(C3CC3)sc2-c2ccc(C)c(F)c2)C1 [Ex. 6.25]
Return: NOT MET

---

# tested_system: human orexin-1 receptor (Homo sapiens (Human), UniProt O43613)
# Sequence (O43613 whole entry): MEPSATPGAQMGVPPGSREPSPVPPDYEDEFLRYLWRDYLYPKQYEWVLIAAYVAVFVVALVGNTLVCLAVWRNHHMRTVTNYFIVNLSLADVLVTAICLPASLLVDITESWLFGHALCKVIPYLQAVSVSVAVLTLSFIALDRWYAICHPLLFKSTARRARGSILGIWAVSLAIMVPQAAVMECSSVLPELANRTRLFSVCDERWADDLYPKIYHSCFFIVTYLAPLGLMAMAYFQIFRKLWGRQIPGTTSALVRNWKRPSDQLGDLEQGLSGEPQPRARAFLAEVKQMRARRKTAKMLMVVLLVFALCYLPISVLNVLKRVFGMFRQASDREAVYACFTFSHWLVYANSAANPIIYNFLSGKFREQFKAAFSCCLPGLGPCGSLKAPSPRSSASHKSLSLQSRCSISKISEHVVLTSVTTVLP
# protocol_details: In vitro assay: intracellular calcium measurements (FLIPR), antagonistic activity
# study_conditions: CHO cells expressing human orexin-1 receptor, orexin-A agonist, geometric mean, read-out: IC50 Ox1
Measured IC50, listed per entry for reference.
Provide only the numeric value, understood in nM.

Enquiry: // query IC50 value for entry Cc1c(Cl)ccc2[nH]c([C@@H]3[C@@H](C)CCN3C(=O)c3cc(F)ccc3-c3ccccc3)nc12
Return: 7

Enquiry: Record request: IC50 value, item C=C1C[C@@H](c2nc3cc(OC)ccc3[nH]2)N(C(=O)c2nc(C)sc2-c2ccc(C)c(C)c2)C1
Return: 7

Enquiry: Reported IC50, compound COc1cc2nc([C@@H]3[C@@H](C)CCN3C(=O)c3c(-n4nccn4)ccc(C)c3F)[nH]c2cc1OC : ____
Return: 38

Enquiry: Reported IC50, compound Cc1cccc(-c2ccc(C)cc2C(=O)N2CCC[C@@]2(C)c2nc3cc(C(F)(F)F)ccc3[nH]2)c1 : ____
Return: 16

Enquiry: What does the record list as IC50 for Cc1cccc(-c2sc(C)nc2C(=O)N2CC[C@H](C)[C@H]2c2nc3c(Cl)cccc3[nH]2)c1 ?
Return: 3

Enquiry: Give its IC50 value. Item: C=C1C[C@@H](c2nc3cc(OC)ccc3[nH]2)N(C(=O)c2ccsc2-c2cccc(C)c2)C1
Return: 269

Continuing:
Enquiry: What IC50 value was documented for this compound, CO[C@H]1CN(C(=O)c2ccccc2-n2nccn2)C(C)(c2nc3c(C)c(Cl)ccc3[nH]2)C1 (stereo partly shown) ?
Return: 16
